SYSTEM TESTED: EGFR (Homo sapiens, UniProt P00533)
Sequence (P00533 25-1210): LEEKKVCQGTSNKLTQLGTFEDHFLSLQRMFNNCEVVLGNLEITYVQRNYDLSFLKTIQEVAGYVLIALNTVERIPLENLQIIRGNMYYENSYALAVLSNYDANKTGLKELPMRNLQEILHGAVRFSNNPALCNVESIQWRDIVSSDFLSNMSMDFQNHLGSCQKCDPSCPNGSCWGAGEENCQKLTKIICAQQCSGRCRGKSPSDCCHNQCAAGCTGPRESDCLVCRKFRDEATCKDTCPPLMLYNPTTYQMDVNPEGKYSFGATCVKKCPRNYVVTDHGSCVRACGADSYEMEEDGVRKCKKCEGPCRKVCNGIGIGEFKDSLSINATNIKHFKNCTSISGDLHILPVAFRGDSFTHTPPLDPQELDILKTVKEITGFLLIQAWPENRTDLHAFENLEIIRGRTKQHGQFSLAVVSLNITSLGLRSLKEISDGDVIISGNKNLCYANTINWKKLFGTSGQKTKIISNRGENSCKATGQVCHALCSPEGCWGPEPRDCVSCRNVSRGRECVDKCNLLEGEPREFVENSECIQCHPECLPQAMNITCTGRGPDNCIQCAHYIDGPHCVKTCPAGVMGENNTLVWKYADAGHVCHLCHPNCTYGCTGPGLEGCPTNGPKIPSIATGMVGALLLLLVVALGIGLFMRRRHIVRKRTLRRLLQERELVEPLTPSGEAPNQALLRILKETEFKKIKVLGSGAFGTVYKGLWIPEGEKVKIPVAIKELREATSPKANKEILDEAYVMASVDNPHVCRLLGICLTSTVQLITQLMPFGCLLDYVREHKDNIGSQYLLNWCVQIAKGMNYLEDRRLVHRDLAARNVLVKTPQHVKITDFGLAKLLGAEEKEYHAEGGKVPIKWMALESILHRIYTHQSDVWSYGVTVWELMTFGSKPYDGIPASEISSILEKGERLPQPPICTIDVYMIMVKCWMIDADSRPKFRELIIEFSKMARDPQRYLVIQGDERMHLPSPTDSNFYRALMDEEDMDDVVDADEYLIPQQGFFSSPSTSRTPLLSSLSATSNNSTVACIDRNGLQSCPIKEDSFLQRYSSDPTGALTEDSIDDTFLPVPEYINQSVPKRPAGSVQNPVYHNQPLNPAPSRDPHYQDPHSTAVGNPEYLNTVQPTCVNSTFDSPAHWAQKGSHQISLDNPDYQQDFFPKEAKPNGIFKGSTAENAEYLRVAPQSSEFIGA
EXPERIMENT NOTES: Inhibition of a panel of kinases, in vitro HotSpot kinase assay: EGFR
Format: biochemical
TEST SETTINGS: D-compounds panel data; 1 μM ATP
pIC50: −log10 of the molar value.
VALUE TYPE: pIC50

Fill in: EGFR (Homo sapiens, UniProt P00533) pIC50 for C[C@@H]1[C@H](NC(=O)N(C)C)CCCN1c1cnc(C(N)=O)c(Nc2ccc(OC3CCN(C)CC3)cc2)n1 = 6.00 to 7.00

Fill in: EGFR (Homo sapiens, UniProt P00533) pIC50 for CC(=O)NC(C)(C)c1ccc(C(=O)N[C@@H]2CCCN(c3cnc(C(N)=O)c(Nc4cnn(C)c4)n3)[C@@H]2C)cc1 = 5.00 to 6.00

Fill in: EGFR (Homo sapiens, UniProt P00533) pIC50 for C[C@@H]1[C@H](NC(=O)c2ccc(OC3CC3)cc2)CCCN1c1cnc(C(N)=O)c(Nc2cnn(C)c2)n1 = 5.00 to 6.00

Fill in: EGFR (Homo sapiens, UniProt P00533) pIC50 for C[C@@H]1[C@H](NC(=O)c2ccc(C3CC3)nc2)CCCN1c1cnc(C(N)=O)c(Nc2ccc(OC3CCOCC3)cc2)n1 = 6.00 to 7.00

Fill in: EGFR (Homo sapiens, UniProt P00533) pIC50 for C[C@@H]1[C@H](NC(=O)c2ccc(C3CC3)cc2)CCCN1c1cnc(C(N)=O)c(Nc2cnn(C3CCN(C(=O)C4(C)COC4)CC3)c2)n1 = 6.00 to 7.00

Fill in: EGFR (Homo sapiens, UniProt P00533) pIC50 for CC(=O)N1CCC(c2ccc(Nc3nc(N4CCC[C@@H](NC(=O)c5ccc(C6CC6)cc5)[C@H]4C)cnc3C(N)=O)cc2)CC1 = 6.00 to 7.00

Fill in: EGFR (Homo sapiens, UniProt P00533) pIC50 for C[C@@H]1[C@H](NC(=O)c2ccc(C3CC3)cc2)CCCN1c1cnc(C(N)=O)c(Nc2cnn(C3CC3)c2)n1 = 5.00 to 6.00

Fill in: EGFR (Homo sapiens, UniProt P00533) pIC50 for C/C=C/c1ccc(C(=O)N[C@@H]2CCCN(c3cnc(C(N)=O)c(Nc4cc(C)ns4)c3)[C@@H]2C)c(F)c1 = 6.00 to 7.00

Fill in: EGFR (Homo sapiens, UniProt P00533) pIC50 for C[C@@H]1[C@H](NC(=O)c2ccc(C3CC3)cc2F)CCCN1c1cnc(C(N)=O)c(Nc2ccc3ncccc3c2)n1 = < 5.00

Fill in: EGFR (Homo sapiens, UniProt P00533) pIC50 for COc1cc(C(=O)N[C@@H]2CCCN(c3cnc(C(N)=O)c(Nc4cnn(C)c4)n3)[C@@H]2C)ccc1C1CC1 = 5.00 to 6.00

Fill in: EGFR (Homo sapiens, UniProt P00533) pIC50 for Cn1cc(Nc2nc(N3CCC[C@H]4[C@@H]3CCCN4C(=O)c3ccc(C4CC4)cc3)cnc2C(N)=O)cn1 = < 5.00

Fill in: EGFR (Homo sapiens, UniProt P00533) pIC50 for C[C@@H]1[C@H](NC(=O)c2ccc3c(c2)OC(F)(F)O3)CCCN1c1cnc(C(N)=O)c(Nc2cnn(C)c2)n1 = 5.00 to 6.00

Fill in: EGFR (Homo sapiens, UniProt P00533) pIC50 for Cn1cc(Nc2nc(N3C4CCC(NC(=O)c5ccc(C6CC6)cc5)C3CC4)cnc2C(N)=O)cn1 (single isomer, unassigned) [Example D-199] = < 5.00

----------
SYSTEM TESTED: EGFR (Homo sapiens, UniProt P00533)
EXPERIMENT NOTES: Inhibition of a panel of kinases, in vitro HotSpot kinase assay: EGFR
Assay type: biochemical
TEST SETTINGS: D-compounds panel data; 1 μM ATP
pIC50: −log10 of the molar value.
Could you please report measured pIC50 for the items listed next?

For C[C@@H]1[C@H](NC(=O)c2ccc3nn(C)cc3c2)CCCN1c1cnc(C(N)=O)c(Nc2cnn(C)c2)n1 the molecule record lists pIC50 as 6.00 to 7.00

For C[C@@H]1[C@H](NC(=O)c2ccc(C3CC3)cc2)CCCN1c1cnc(C(N)=O)c(Nc2cc(C3CCOCC3)ns2)n1 the molecule record lists pIC50 as 5.00 to 6.00

For C[C@@H]1[C@H](NC(=O)c2ccc(C3CC3)cc2)CCCN1c1cnc(C(N)=O)c(Nc2cnc(N3CCN(C)CC3)nc2)n1 the molecule record lists pIC50 as < 5.00

----------
SYSTEM TESTED: JAK3 (Homo sapiens)
Sequence (P52333 whole entry): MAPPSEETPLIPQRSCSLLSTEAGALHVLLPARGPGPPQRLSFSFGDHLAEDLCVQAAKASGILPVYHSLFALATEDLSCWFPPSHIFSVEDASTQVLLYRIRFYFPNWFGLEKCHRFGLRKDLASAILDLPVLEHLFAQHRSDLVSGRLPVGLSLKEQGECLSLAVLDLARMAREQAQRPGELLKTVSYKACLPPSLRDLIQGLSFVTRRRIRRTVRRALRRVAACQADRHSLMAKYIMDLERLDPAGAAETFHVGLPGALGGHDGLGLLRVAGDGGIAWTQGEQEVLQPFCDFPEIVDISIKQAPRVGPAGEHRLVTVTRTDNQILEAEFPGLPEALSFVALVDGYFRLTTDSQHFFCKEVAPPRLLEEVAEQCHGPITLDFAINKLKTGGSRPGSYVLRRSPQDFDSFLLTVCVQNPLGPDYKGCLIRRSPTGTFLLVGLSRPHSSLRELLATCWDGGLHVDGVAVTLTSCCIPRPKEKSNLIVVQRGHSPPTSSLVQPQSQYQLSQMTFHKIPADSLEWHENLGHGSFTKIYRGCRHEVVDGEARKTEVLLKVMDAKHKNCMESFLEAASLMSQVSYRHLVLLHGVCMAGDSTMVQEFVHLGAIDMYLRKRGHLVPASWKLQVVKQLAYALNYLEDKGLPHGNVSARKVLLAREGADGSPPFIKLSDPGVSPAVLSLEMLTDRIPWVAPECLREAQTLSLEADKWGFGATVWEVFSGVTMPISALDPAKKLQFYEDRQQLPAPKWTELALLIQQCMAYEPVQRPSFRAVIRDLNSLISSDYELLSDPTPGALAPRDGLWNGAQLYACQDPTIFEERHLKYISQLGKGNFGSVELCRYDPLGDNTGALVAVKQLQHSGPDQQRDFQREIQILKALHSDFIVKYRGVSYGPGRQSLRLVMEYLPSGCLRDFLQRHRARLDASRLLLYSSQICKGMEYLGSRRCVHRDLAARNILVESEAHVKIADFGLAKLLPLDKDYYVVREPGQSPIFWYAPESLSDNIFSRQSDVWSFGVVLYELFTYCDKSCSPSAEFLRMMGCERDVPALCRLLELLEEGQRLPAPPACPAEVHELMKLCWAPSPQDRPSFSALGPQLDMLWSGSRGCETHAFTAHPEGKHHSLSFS
EXPERIMENT NOTES: Inhibition of a panel of kinases, in vitro HotSpot kinase assay: JAK3
Assay type: biochemical
TEST SETTINGS: Table 10, Formula A-I; 1 μM ATP; read-out: JAK3 (IC50)
pIC50: −log10 of the molar value. Where a name gives a salt, the structure may show the parent alone.
VALUE TYPE: pIC50

For Cc1cc(Nc2nc(N3CCC[C@@H](N4CCN(c5cccc(Cl)c5)C4=O)C3)cnc2C(N)=O)sn1 [Example A-52] the molecule record lists pIC50 as 6.00 to 7.00

For Cc1ccc(C(=O)N[C@@H]2CCCN(c3cnc(C(N)=O)c(Nc4cc(C)ns4)n3)C2)c(F)c1 [Example A-24] the molecule record lists pIC50 as < 5.00

For Cc1cc(Nc2nc(N3CCC[C@@H](NC(=O)c4ccc(N5CCCC5)cc4)C3)cnc2C(N)=O)sn1 [Example A-26] the molecule record lists pIC50 as 5.00 to 6.00

For NC(=O)c1ncc(N2CCC[C@@H](NC(=O)c3ccccc3)C2)nc1Nc1ccc2ncccc2c1 [Example A-45] the molecule record lists pIC50 as 5.00 to 6.00

For Cc1cc(Nc2nc(N3CCC[C@@H](NC(=O)c4ccc(N(C)C)cc4)C3)cnc2C(N)=O)sn1 [Example A-21] the molecule record lists pIC50 as 6.00 to 7.00

For CN(C)c1ccc(C(=O)N[C@@H]2CCCN(c3cnc(C(N)=O)c(Nc4ccc(C5(C)CCN(C6CC6)CC5)cc4)n3)C2)cc1 [Example A-49] the molecule record lists pIC50 as 6.00 to 7.00

For Cc1cc(Nc2cc(N3CCC[C@@H](NC(=O)N4Cc5ccccc5C4)C3)cnc2C(N)=O)sn1 [Example A-18] the molecule record lists pIC50 as < 5.00

For Cc1cc(Nc2nc(N3CCC[C@@H](NC(=O)NC4CCCCC4)C3)cnc2C(N)=O)sn1 [Example A-13] the molecule record lists pIC50 as 5.00 to 6.00

For Cc1cc(Nc2cc(N3CCC[C@@H](NC(=O)N(C)C)C3)cnc2C(N)=O)sn1 [Example A-64] the molecule record lists pIC50 as 5.00 to 6.00

For Cc1cc(Nc2nc(N3CCC[C@H](NC(=O)c4ccc(N(C)C)cc4)[C@H]3CO)cnc2C(N)=O)sn1 [Example A-70] the molecule record lists pIC50 as < 5.00

For Cc1cc(Nc2nc(N3CCC[C@@H](NC(=O)c4ccc(C(C)C)cc4)C3)cnc2C(N)=O)sn1 [Example A-30] the molecule record lists pIC50 as 5.00 to 6.00

For Cc1cc(Nc2nc(N3CCC[C@@H](NC(=O)c4ccc(N(C)C)cc4)[C@H]3CO)cnc2C(N)=O)sn1 (stereo in doubt) [Example A-68] the molecule record lists pIC50 as < 5.00

For C=CC(=O)N[C@@H]1CCCN(c2cnc(C(N)=O)c(Nc3ccc(C4CCN(C5CCCC5)CC4)cc3)n2)[C@@H]1C [Example A-85] the molecule record lists pIC50 as > 7.00

For Cc1cc(Nc2nc(N3CCC[C@@H](NC(=O)c4cccc(F)c4)C3)cnc2C(N)=O)sn1 [Example A-22] the molecule record lists pIC50 as 6.00 to 7.00

For Cc1cc(Nc2nc(N3CCC[C@@H](NC(=O)Nc4ncc(C)s4)C3)cnc2C(N)=O)sn1 [Example A-12] the molecule record lists pIC50 as 5.00 to 6.00

For C[C@@H]1[C@H](NC(=O)c2ccc(C3CC3)cc2F)CCCN1c1cnc(C(N)=O)c(Nc2ccc(N3CCN(C)CC3)cc2)n1 [Example A-81] the molecule record lists pIC50 as 5.00 to 6.00

For NC(=O)c1ncc(N2CCC[C@@H](NC(=O)N3Cc4ccccc4C3)C2)nc1Nc1ccc(C2CCN(C3CCCC3)CC2)cc1 [Example A-5, hydrochloride] the molecule record lists pIC50 as 6.00 to 7.00

For Cc1cc(Nc2nc(N3CCC[C@@H](NC(=O)c4ccc(F)cc4F)C3)cnc2C(N)=O)sn1 [Example A-36] the molecule record lists pIC50 as < 5.00

For NC(=O)c1ncc(N2CCC[C@@H](NC(=O)Nc3ccccc3)C2)nc1Nc1ccc(C2CCN(C3CCCC3)CC2)cc1 [Example A-2, hydrochloride] the molecule record lists pIC50 as 6.00 to 7.00

For CC1(c2ccc(Nc3nc(N4CCC[C@@H](NC(=O)c5ccccc5)C4)cnc3C(N)=O)cc2)CCN(C2CC2)CC1 [Example A-48] the molecule record lists pIC50 as > 7.00

For C[C@@H]1[C@H](NC(=O)N(C)C)CCCN1c1cnc(C(N)=O)c(Nc2ccc3ncccc3c2)n1 [Example A-59] the molecule record lists pIC50 as 5.00 to 6.00

For C[C@H]1[C@@H](NC(=O)N(C)C)CCCN1c1cnc(C(N)=O)c(Nc2ccc3ncccc3c2)n1 [Example A-60] the molecule record lists pIC50 as 5.00 to 6.00

For Cc1cc(Nc2nc(N3CCC[C@@H](NC(=O)c4ccc(N(C)C)cc4)[C@@H]3CO)cnc2C(N)=O)sn1 [Example A-69] the molecule record lists pIC50 as < 5.00

For Cc1cc(Nc2nc(N3CCC[C@@H](NC(=O)c4ccc(N(C)C)nc4)C3)cnc2C(N)=O)sn1 [Example A-34] the molecule record lists pIC50 as 5.00 to 6.00

For CCn1ccc2cc(C(=O)N[C@@H]3CCCN(c4cnc(C(N)=O)c(Nc5cc(C)ns5)n4)C3)ccc21 [Example A-31] the molecule record lists pIC50 as 6.00 to 7.00

For CC(C)c1ccc(C(=O)N[C@@H]2CCCN(c3cnc(C(N)=O)c(Nc4ccccn4)n3)C2)cc1 [Example A-71] the molecule record lists pIC50 as 5.00 to 6.00

For Cc1cc(Nc2nc(N3CCC(CNC(=O)N(C)C)CC3)cnc2C(N)=O)sn1 [Example A-75] the molecule record lists pIC50 as > 7.00

For Cc1cc(Nc2nc(N3CCC[C@@H](NC(=O)c4ccc(C5CC5)cc4F)[C@H]3C)cnc2C(N)=O)sn1 [Example A-74] the molecule record lists pIC50 as 5.00 to 6.00
